molecular target: COS-7/AMY3 (human calcitonin receptor (CTR) and RAMP3) (Homo sapiens, UniProt O60896+P30988); construct: expressed in transfected cells; host or cells: COS-7; test: Amylin Receptor cAMP Assay II; assay type: cell-based; conditions: values marked **: Amylin Receptor cAMP Assay II; COS-7/AMY3 cells, cAMP dynamic 2 kit, 30 min; read-out: Amylin Receptor cAMP Stimulation Activity: EC50
Sequence (P30988 25-474): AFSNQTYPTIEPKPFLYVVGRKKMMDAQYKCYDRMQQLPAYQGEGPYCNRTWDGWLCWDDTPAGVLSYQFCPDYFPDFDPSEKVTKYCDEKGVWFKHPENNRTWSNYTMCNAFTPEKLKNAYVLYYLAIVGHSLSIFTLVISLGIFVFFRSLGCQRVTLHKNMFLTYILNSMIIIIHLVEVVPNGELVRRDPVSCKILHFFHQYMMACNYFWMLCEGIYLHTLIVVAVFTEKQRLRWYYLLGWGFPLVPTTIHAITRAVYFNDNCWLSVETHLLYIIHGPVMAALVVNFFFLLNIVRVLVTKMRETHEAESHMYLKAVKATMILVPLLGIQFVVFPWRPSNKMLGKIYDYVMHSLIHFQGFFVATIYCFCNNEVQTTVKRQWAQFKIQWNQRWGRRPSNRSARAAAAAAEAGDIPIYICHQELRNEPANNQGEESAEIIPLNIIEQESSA
Sequence (O60896 24-148): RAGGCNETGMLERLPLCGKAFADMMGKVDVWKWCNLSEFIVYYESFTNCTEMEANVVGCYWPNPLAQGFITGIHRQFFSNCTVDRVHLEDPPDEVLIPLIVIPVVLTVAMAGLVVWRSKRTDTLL
The following compounds are shown together with reported EC50 values.
reported.endpoint: EC50 (nM)

>>> recorded_measurement("O=C1c2c(nc(CCc3ccc(F)cc3)c(-c3n[nH]c(=O)o3)c2-c2cc3cc(C(F)F)nc(N[C@@H]4CCOc5c(F)cc(F)cc54)c3s2)C23CC(CN12)C3 [Compound 297]")
1.07
>>> recorded_measurement("Cc1cc2cc(-c3c4c(nc(CCc5ccc(F)cc5)c3-c3n[nH]c(=O)o3)C35CC(CN3C4=O)C5)sc2c(N[C@@H]2CCc3cc(F)c(F)cc32)n1 [Compound 255]")
0.318
>>> recorded_measurement("COc1cccc2c1CC[C@H]2Nc1nccc2cc(-c3c4c(nc(C[C@H]5COc6cc(F)ccc65)c3-c3n[nH]c(=O)o3)[C@@H]3CCCN3C4=O)sc12 [Compound 217]")
47.8
>>> recorded_measurement("COc1cccc2c1CC[C@H]2Nc1nc(C(F)F)cc2cc(-c3c4c(nc(CCc5ccc(F)cc5)c3-c3n[nH]c(=O)o3)[C@@H]3CCCN3C4=O)sc12 [Compound 188]")
6.57
>>> recorded_measurement("COc1cccc2c1CC[C@H]2Nc1nccc2cc(-c3c4c(nc(CCc5cccc(C6CCOC6)c5)c3-c3noc(=O)[nH]3)[C@@H]3CCCN3C4=O)sc12 (stereo partly shown) [Compound 151]")
159
>>> recorded_measurement("O=C1c2c(nc(CCc3ccc(F)cc3)c(-c3n[nH]c(=O)o3)c2-c2cc3ccnc(N[C@@H]4CCOc5c(F)cc(F)cc54)c3s2)[C@@H]2CCCN12 [Compound 259]")
1.52
>>> recorded_measurement("COc1c(F)ccc2c1C[C@@H](F)[C@H]2Nc1nc(C)cc2cc(-c3c4c(nc(CCc5ccc(F)cc5)c3-c3n[nH]c(=O)o3)C35CC(CN3C4=O)C5)sc12 [Compound 196]")
0.196
>>> recorded_measurement("C[C@@H](Nc1nccc2cc(-c3c4c(nc(CCc5ccc(F)cc5)c3-c3n[nH]c(=O)o3)[C@@H]3CCCN3C4=O)sc12)c1ccc(F)cc1F [Compound 228]")
3030
>>> recorded_measurement("CC(c1ccc(C#N)c(F)c1)n1ccc2cc(-c3c(-c4n[nH]c(=O)o4)c(CCc4ccc(F)cc4)nc4c3c(=O)n3n4CCC3)ccc21 (stereo not shown) [Compound 159]")
28.7
>>> recorded_measurement("O=C1c2c(nc(CCc3ccc(F)cc3)c(-c3n[nH]c(=O)o3)c2-c2cc3ccnc(N[C@@H]4COc5ccccc54)c3s2)[C@@H]2CCCN12 [Compound 169]")
254
>>> recorded_measurement("COc1c(F)ccc2c1CC(F)(F)[C@@H]2Nc1nccc2cc(-c3c4c(nc(CCc5ccc(F)cc5)c3-c3n[nH]c(=O)o3)[C@@H]3CCCN3C4=O)sc12 [Compound 290]")
1640
>>> recorded_measurement("COc1c(F)c(F)cc2c1CC[C@H]2Nc1nccc2cc(-c3c4c(nc(CCc5ccc(F)cc5)c3-c3n[nH]c(=O)o3)C35CC(CN3C4=O)C5)sc12 [Compound 286]")
0.175
>>> recorded_measurement("COc1c(F)ccc2c1CC(F)(F)[C@H]2Nc1nccc2cc(-c3c4c(nc(CCc5ccc(F)cc5)c3-c3n[nH]c(=O)o3)[C@@H]3CCCN3C4=O)sc12 [Compound 282]")
0.464
>>> recorded_measurement("O=C1c2c(nc(CCc3ccc(F)cc3)c(-c3noc(=O)[nH]3)c2-c2cc3ccnc(N[C@@H]4CCCc5ccccc54)c3s2)[C@@H]2CCCN12 [Compound 139]")
41.5
>>> recorded_measurement("COc1cccc2c1CC[C@H]2Nc1nccc2cc(-c3c4c(nc(CCc5ccc(-n6cccn6)cc5)c3-c3n[nH]c(=O)o3)[C@@H]3CCCN3C4=O)sc12 [Compound 243]")
11.2
>>> recorded_measurement("N#Cc1ccc(Cn2ccc3cc(-c4c(-c5n[nH]c(=O)o5)c(CCc5ccc(F)cc5)nc5c4c(=O)n4n5CCC4)ccc32)cc1F [Compound 158]")
12.8
>>> recorded_measurement("O=C(NCc1ccc(F)c(F)c1)c1ccc(-c2c3c(nc(CCc4ccc(F)cc4)c2-c2noc(=O)[nH]2)[C@@H]2CCCN2C3=O)s1 [Compound 101]")
101
>>> recorded_measurement("COc1cccc2c1CC(F)(F)[C@H]2Nc1nccc2cc(-c3c4c(nc(CCc5ccc(F)cc5)c3-c3n[nH]c(=O)o3)[C@@H]3COCCN3C4=O)sc12 [Compound 284]")
81.6
>>> recorded_measurement("O=C1c2c(nc(CCC3CCOCC3)c(-c3cc(=O)[nH]o3)c2-c2cc3ccnc(NCc4ccc(F)c(F)c4)c3s2)[C@@H]2CCCN12 [Compound 206]")
1590
>>> recorded_measurement("COc1c(Cl)cc2c(c1F)CC[C@H]2Nc1nccc2cc(-c3c4c(nc(CCc5ccc(F)cc5)c3-c3n[nH]c(=O)o3)[C@@H]3CCCN3C4=O)sc12 [Compound 256]")
12.8
>>> recorded_measurement("COc1c(F)ccc2c1CC[C@H]2Nc1nc(C)cc2cc(-c3c4c(nc(CCc5ccc(F)cc5)c3-c3n[nH]c(=O)o3)C(C3CC3)NC4=O)sc12 (stereo partly shown) [Compound 302]")
3.97
>>> recorded_measurement("O=C1c2c(nc(CCc3ccc(F)cc3)c(-c3n[nH]c(=O)o3)c2-c2cc3ccnc(N[C@@H]4CCc5ccccc54)c3s2)[C@@H]2CCCN12 [Compound 226]")
14.2
